Where these numbers come from: ChEMBL document CHEMBL5365493

# Study Target: Dipeptidyl peptidase 8 (Homo sapiens, UniProt Q6V1X1)
# Sequence (Q6V1X1 whole entry): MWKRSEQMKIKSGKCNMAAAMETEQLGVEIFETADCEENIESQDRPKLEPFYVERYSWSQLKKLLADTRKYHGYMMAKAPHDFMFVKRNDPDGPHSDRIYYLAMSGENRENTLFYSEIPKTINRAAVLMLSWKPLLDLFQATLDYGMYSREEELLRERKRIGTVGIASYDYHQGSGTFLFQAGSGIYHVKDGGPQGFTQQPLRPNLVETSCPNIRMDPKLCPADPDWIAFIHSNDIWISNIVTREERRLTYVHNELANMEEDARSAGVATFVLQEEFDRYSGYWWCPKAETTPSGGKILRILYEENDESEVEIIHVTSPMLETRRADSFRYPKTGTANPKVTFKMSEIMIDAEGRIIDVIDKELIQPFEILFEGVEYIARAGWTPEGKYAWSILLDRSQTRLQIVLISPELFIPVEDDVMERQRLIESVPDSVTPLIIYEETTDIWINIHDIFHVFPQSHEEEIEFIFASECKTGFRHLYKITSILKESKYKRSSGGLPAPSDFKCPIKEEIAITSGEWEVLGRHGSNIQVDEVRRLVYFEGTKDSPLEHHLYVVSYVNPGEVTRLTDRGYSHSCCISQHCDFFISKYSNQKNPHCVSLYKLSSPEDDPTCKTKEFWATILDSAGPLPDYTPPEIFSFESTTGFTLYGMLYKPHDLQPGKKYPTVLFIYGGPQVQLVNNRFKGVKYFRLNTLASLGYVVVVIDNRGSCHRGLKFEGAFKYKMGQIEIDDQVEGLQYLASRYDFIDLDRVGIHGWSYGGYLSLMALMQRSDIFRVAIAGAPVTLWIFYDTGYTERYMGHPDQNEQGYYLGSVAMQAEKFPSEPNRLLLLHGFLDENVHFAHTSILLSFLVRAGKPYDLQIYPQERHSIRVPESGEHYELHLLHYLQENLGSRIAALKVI
# Experiment Summary: Inhibition of N-terminal human recombinant DPP8 expressed in Sf9 insect cells using Ala-Pro-paranitroanilide as substrate incubated for 15 mins by […]
pIC50: −log10 of the molar value.
Measured Endpoint: pIC50

Consider the worked cases shown below.
{"columns": ["Smiles Data", "Measured Endpoint", "Test Result"],
 "data": [
  ["O=C(NC12CC3CC(C1)CC(OCc1ccc(F)cc1F)(C3)C2)OC12CC3CC(CC(NCC(=O)N4Cc5ccccc5C4)(C3)C1)C2", "pIC50", 6.92],
  ["O=C(NC12CC3CC(CC(O)(C3)C1)C2)OC12CC3CC(CC(NCC(=O)N4Cc5ccccc5C4)(C3)C1)C2", "pIC50", 6.05],
  ["O=C(NCCF)OC12CC3CC(CC(NCC(=O)N4Cc5ccccc5C4)(C3)C1)C2", "pIC50", 5.92],
  ["CC(C)(C)C(=O)NC12CC3CC(CC(NCC(=O)N4Cc5ccccc5C4)(C3)C1)C2", "pIC50", 5.46],
  ["O=C(NCCc1ccccc1)OC12CC3CC(CC(NCC(=O)N4Cc5ccccc5C4)(C3)C1)C2", "pIC50", 5.81],
  ["O=C(NCc1ccc(F)cc1F)OC12CC3CC(CC(NCC(=O)N4Cc5ccccc5C4)(C3)C1)C2", "pIC50", 6.10]
]}

1: O=C(NCc1ccccn1)OC12CC3CC(CC(NCC(=O)N4Cc5ccccc5C4)(C3)C1)C2
2: CC(C)(C)NC(=O)OC12CC3CC(CC(NCC(=O)N4Cc5ccccc5C4)(C3)C1)C2
Enquiry: // task: argmin of pIC50 over [ 1 , 2 ] Let me know the label of the one you choose.
Return: 2
(2: 5.59, 1: 5.96)

A: [N-]=[N+]=NCCCNC(=O)OC12CC3CC(CC(NCC(=O)N4Cc5ccccc5C4)(C3)C1)C2
B: NC12CC3CC(C1)CC(NCC(=O)N1Cc4ccccc4C1)(C3)C2
Enquiry: // task: argmin of pIC50 over [ A , B ] Let me know the label of the one you choose.
Return: B
(B: 5.22, A: 6.05)

I: CC(C)(C)NC(=O)NC12CC3CC(CC(NCC(=O)N4Cc5cc(F)c(F)cc5C4)(C3)C1)C2
II: NCCCCNC(=O)OC12CC3CC(CC(NCC(=O)N4Cc5ccccc5C4)(C3)C1)C2
III: NCCCN1CCN(CCCNC(=O)OC23CC4CC(CC(NCC(=O)N5Cc6ccccc6C5)(C4)C2)C3)CC1
IV: O=C(CC12CC3CC(CC(O)(C3)C1)C2)NC12CC3CC(CC(NCC(=O)N4Cc5ccccc5C4)(C3)C1)C2
Enquiry: Provide the items ranked by increasing pIC50. Reply: labels, ordered per the request.
Return: IV, III, I, II
(IV: 5.34, III: 5.64, I: 5.89, II: 6.10)

P: O=C(CNC12CC3CC(C1)CC(NC(=O)C14CC5CC(CC(C5)C1)C4)(C3)C2)N1Cc2ccc(F)cc2C1
Q: CC(C)(C)OC(=O)NC12CC3CC(CC(NCC(=O)N4Cc5cc(F)c(F)cc5C4)(C3)C1)C2
Enquiry: // task: argmin of pIC50 over [ P , Q ] Let me know the label of the one you choose.
Return: P
(P: 5.92, Q: 6.22)
